Tested on: Plasmodium falciparum
ASSAY INFO: Calibr Malaria Delayed Death Assay SOP
Type: functional, organism-based
Design: scale not given: in the data most compounds retested in dose-response had high values
EXPERIMENTAL CONDITIONS: concentration 4.99e-06 (unit not given; other assays of the set use mol/L)
The whole screen tested about 38,000 compounds, of which about 1,200 (3.2%) showed an effect of 50% or more. The median lay at about -58%. This is one part of a sample in which strong results are shown more often than they occur.
ENDPOINT NAME: Percent Effect
A bare number is not enough; add the unit after it.

Please review the entries below; each comes with its answer.
[
  {
    "MOLECULE": "Cn1cccc1C(O)CNC(=O)COc1ccccc1F (stereo unspecified)",
    "Percent Effect": "-31.9%"
  },
  {
    "MOLECULE": "Cn1cccc1C(CNC(=O)COc1ccc(Cl)cc1Cl)N1CCCC1 (stereo unspecified)",
    "Percent Effect": "74.07%"
  },
  {
    "MOLECULE": "Cc1cc(C(=O)NCc2cccnc2N2CCc3ccccc3C2)[nH]n1",
    "Percent Effect": "-34.77%"
  },
  {
    "MOLECULE": "NC(=O)NCCC(=O)NCc1cccnc1N1CCc2ccccc2C1",
    "Percent Effect": "-76.53%"
  },
  {
    "MOLECULE": "CCn1ncc2c1C(COC)N(C(=O)c1ccsc1)CC2.O=C(O)C(F)(F)F (stereo unspecified)",
    "Percent Effect": "-121.1%"
  }
]

Pending molecule:
Exercise: Dear colleague, I am looking for the recorded Percent Effect of the following molecule: "Cc1nnsc1C(=O)NCc1cccnc1N1CCc2ccccc2C1"
Solution: -86.78%

----------
Test system: Plasmodium falciparum
ASSAY INFO: Calibr Malaria Delayed Death Assay SOP
Assay type: functional, organism-based
Design: scale not given: in the data most compounds retested in dose-response had high values
EXPERIMENTAL CONDITIONS: concentration 4.99e-06 (unit not given; other assays of the set use mol/L)
Among all 38,000 compounds or so, about 1,200 (3.2%) showed an effect of 50% or more. The median lay at about -58%. Many of the other results were omitted from the sample, so strong results are more common in it than they were.
Use yes (1) when the recorded Percent Effect is no lower than -80%; use no (0) when it is lower.

Solved cases (6 shown):
[
  {
    "COMPOUND": "O=C(NCCC(=O)N1CCCC1)c1cccnc1",
    "DISCRETE LABEL": "no (0)"
  },
  {
    "COMPOUND": "Cc1cc(F)c(S(=O)(=O)NCCCN2CCC(O)CC2)cc1F",
    "DISCRETE LABEL": "no (0)"
  },
  {
    "COMPOUND": "O=C(O)C(F)(F)F.O=C(O)c1cc(NS(=O)(=O)c2ccc(Cl)s2)ccc1N1CCOCC1",
    "DISCRETE LABEL": "no (0)"
  },
  {
    "COMPOUND": "COC(=O)c1cc2c(=O)n(C3CC3)ccc2nc1C",
    "DISCRETE LABEL": "yes (1)"
  },
  {
    "COMPOUND": "COc1cccc(CN(C)Cc2nc(C(C)C)no2)c1",
    "DISCRETE LABEL": "yes (1)"
  },
  {
    "COMPOUND": "Cc1ccc(C(=O)N2CCC3(CCN3Cc3ccc(F)cc3)C2)cn1.O=C(O)C(F)(F)F (stereo unspecified)",
    "DISCRETE LABEL": "no (0)"
  }
]

Exercise: Say whether "Cc1n[nH]c(C)c1-c1cc(-c2cccc(O)c2)nc(N)c1C#N" shows Percent Effect of -80% or more.
Solution: yes (1)

Exercise: Say whether "Cn1cnc(S(=O)(=O)NCCCN2CCCCCC2)c1Cl" shows Percent Effect of -80% or more.
Solution: no (0)

Exercise: Say whether "CC1CCN(CCCNS(=O)(=O)c2cc(F)cc(F)c2)CC1.Cl" shows Percent Effect of -80% or more.
Solution: yes (1)

Exercise: Say whether "CC(C)Cc1cc(-c2cc(-c3ccc[nH]3)nc(N)c2C#N)n[nH]1" shows Percent Effect of -80% or more.
Solution: yes (1)

----------
Would you mind telling me the reported Percent Effect of each entry?
Test system: Plasmodium falciparum
ASSAY INFO: Calibr Malaria Delayed Death Assay SOP
Format: functional, organism-based
Set-up: scale not given: in the data most compounds retested in dose-response had high values
EXPERIMENTAL CONDITIONS: concentration 4.99e-06 (unit not given; other assays of the set use mol/L)
About 1,200 (3.2%) of roughly 38,000 compounds showed an effect of 50% or more. The median lay at about -58%. For the sample, strong results were picked, then their nearest neighbours and some compounds at random.
One number for each entry, in %.

Please review the entries below; each comes with its answer.
[
  {
    "COMPOUND STRUCTURE": "CN(CCO)C[C@@H]1CN(C(=O)c2c(F)cccc2Cl)C[C@@H]1CO",
    "RESULT": -48.12
  },
  {
    "COMPOUND STRUCTURE": "Cc1ccccc1CN1C[C@@H](CN(C)CCO)[C@@H](CO)C1",
    "RESULT": 6.489
  },
  {
    "COMPOUND STRUCTURE": "Cc1ncsc1-c1nnc(C2CCN(Cc3ccc(Cl)cc3)CC2)o1",
    "RESULT": -44.81
  }
]

Count: 2. Required value per item: Percent Effect.
1. Cc1cc(F)ccc1N1CCC(N2C[C@@H](C)[C@@](C)(O)C2)CC1
2. Cc1ccc(N2CCC(N3C[C@@H](CN(C)C)[C@@H](CO)C3)CC2)cc1

Solution:
37.17
0.06165

----------
Would you mind telling me the reported Percent Effect of each entry?
System: Plasmodium falciparum
ASSAY INFO: Calibr Malaria Delayed Death Assay SOP
Assay type: functional, organism-based
Parameters: scale not given: in the data most compounds retested in dose-response had high values
EXPERIMENTAL CONDITIONS: concentration 4.99e-06 (unit not given; other assays of the set use mol/L)
Among all 38,000 compounds or so, about 1,200 (3.2%) showed an effect of 50% or more. The median lay at about -58%. What follows is part of a selection rich in strong results, with near analogues and random picks from the rest.
A bare number is not enough; add the unit after it.

Please review the entries below; each comes with its answer.
[
  {
    "MOLECULE": "CC(O)CN1CCC(CN(C)CCC(=O)NC2CCCC2)CC1 (configuration not stated)",
    "Percent Effect": "-87.19%"
  },
  {
    "MOLECULE": "CC(C)N1CCC2(CC1)C(=O)N(c1cccnc1)c1ccc(F)cc12.Cl",
    "Percent Effect": "64.31%"
  },
  {
    "MOLECULE": "CN1CCC2(CC1)C(=O)N(c1cccnc1)c1ccc(F)cc12.Cl",
    "Percent Effect": "58.26%"
  },
  {
    "MOLECULE": "CC(=O)N1CCC2(CC1)C(=O)N(c1cccnc1)c1ccc(F)cc12",
    "Percent Effect": "-45.42%"
  },
  {
    "MOLECULE": "CC(O)CN1CCC(CN(C)CC(=O)NC(C)C)CC1 (configuration not stated)",
    "Percent Effect": "-132.6%"
  },
  {
    "MOLECULE": "OCCN1CCN(Cc2cc(Cl)cc3cccnc23)CC1",
    "Percent Effect": "-35.44%"
  },
  {
    "MOLECULE": "CN(Cc1cc(Cl)cc2cccnc12)CC1CCN(CCO)CC1",
    "Percent Effect": "88.36%"
  },
  {
    "MOLECULE": "CC(C)c1nc(CN(C)CC2CCN(CCO)CC2)no1",
    "Percent Effect": "-37.31%"
  },
  {
    "MOLECULE": "CN(CC(N)=O)Cc1cc(Cl)cc2cccnc12",
    "Percent Effect": "-110.1%"
  },
  {
    "MOLECULE": "CC(C)N1C(=O)C2(CCN(C)CC2)c2cc(F)ccc21.Cl",
    "Percent Effect": "-16.08%"
  }
]

Count: 2. Required value per item: Percent Effect.
1. COc1ccc(CNc2nc(C3CC3)nc3c(C)nn(C)c23)cc1
2. CN(Cc1cc(F)cc2cccnc12)CC1CCN(CCO)CC1

Solution:
25.99%
84.26%

----------
Tested on: Plasmodium falciparum
ASSAY INFO: Calibr Malaria Delayed Death Assay SOP
Assay type: functional, organism-based
Set-up: scale not given: in the data most compounds retested in dose-response had high values
EXPERIMENTAL CONDITIONS: concentration 4.99e-06 (unit not given; other assays of the set use mol/L)
The whole screen tested about 38,000 compounds, of which about 1,200 (3.2%) showed an effect of 50% or more. The median lay at about -58%. What follows is part of a selection rich in strong results, with near analogues and random picks from the rest.
Would you mind telling me the reported Percent Effect of each entry?
A bare number is not enough; add the unit after it.

Please review the entries below; each comes with its answer.
[
  {
    "COMPOUND": "OCCNc1nc(NCc2cccnc2)nc2nccnc12",
    "ASSAYED TARGET": "Plasmodium falciparum",
    "RESULT": "-78.22%"
  },
  {
    "COMPOUND": "Cc1ccc(C(=O)N2CCC3(CCCC3)CC2)c(=O)[nH]1",
    "ASSAYED TARGET": "Plasmodium falciparum",
    "RESULT": "-40.97%"
  },
  {
    "COMPOUND": "CC(=O)N1CCC2(CC1)c1ncc(-c3ccc(F)cc3)n1CCN2C",
    "ASSAYED TARGET": "Plasmodium falciparum",
    "RESULT": "-51.39%"
  },
  {
    "COMPOUND": "N#Cc1cccc(CNC(=O)Nc2cccnc2N2CCCC2)c1",
    "ASSAYED TARGET": "Plasmodium falciparum",
    "RESULT": "-57.4%"
  }
]

Count: 5. Required value per item: Percent Effect.
1. O=C(NCCOc1ccc(Cl)cn1)Nc1nccs1
2. Clc1ccc(C(CNCc2ccncc2)n2cccn2)cc1 (stereo not given)
3. Cn1cc(CNCC(c2ccc(Cl)cc2)n2cccn2)cn1 (stereo not given)
4. Cc1ccc(-c2cnc3n2CCN(C)C32CCN(CC3CC3)CC2)cc1.O=C(O)C(F)(F)F.O=C(O)C(F)(F)F.O=C(O)C(F)(F)F
5. CCN1CCn2c(-c3cccc(F)c3)cnc2C12CCN(C(C)=O)CC2.O=C(O)C(F)(F)F

Solution:
["-1.653%", "-53.83%", "16.07%", "38.95%", "-93.41%"]

Exercise: Dear colleague, I am looking for the recorded Percent Effect of the following compound: "CN1CCn2c(-c3cnn(C)c3)cnc2C12CCN(CC1CC1)CC2.O=C(O)C(F)(F)F.O=C(O)C(F)(F)F.O=C(O)C(F)(F)F"
Solution: -83.71%
